- Tested on: Raji Burkitt B-cell lymphoma
- experiment-notes: 96h MTT assay using Raji Burkitt B-cell lymphoma
- Assay type: cell-based
- condition-details: Homo sapiens, Raji cells
assay-metric: EC50

compound	obs-value
CC(C)Cc1nn(C)c(=O)c2c(SCCCO)n(Cc3ccc(NCCCCCNC(=O)[C@@H](N)CCC(N)=O)nc3)cc12 [Compound 12]	~100 nM
